- Test system: AKT1 (human), P31749 [S473D]
- Sequence (P31749 whole entry S473D, looked up): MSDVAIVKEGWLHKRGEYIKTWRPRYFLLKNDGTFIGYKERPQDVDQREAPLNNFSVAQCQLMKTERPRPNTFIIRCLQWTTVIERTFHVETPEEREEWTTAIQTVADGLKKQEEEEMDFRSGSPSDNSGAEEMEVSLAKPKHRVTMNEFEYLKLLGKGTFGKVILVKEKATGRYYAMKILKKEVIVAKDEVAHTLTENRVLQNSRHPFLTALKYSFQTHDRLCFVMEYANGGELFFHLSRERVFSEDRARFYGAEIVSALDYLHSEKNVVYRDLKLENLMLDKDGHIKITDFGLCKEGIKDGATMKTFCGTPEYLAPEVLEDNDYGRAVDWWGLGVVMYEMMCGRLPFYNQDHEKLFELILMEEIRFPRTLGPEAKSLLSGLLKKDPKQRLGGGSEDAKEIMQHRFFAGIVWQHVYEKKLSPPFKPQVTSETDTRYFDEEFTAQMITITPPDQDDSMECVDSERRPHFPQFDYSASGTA
- test: radiometric filter-binding kinase assay
- experimental.context: compound 1.0 µM

compound	residual activity, %
Cc1cc(NC(=O)c2cccc(NC(=O)/C=C/CN(C)C)c2)ccc1Nc1nccc(-c2cccnc2)n1	98
Cc1cc(SCc2sc(-c3ccc(C(F)(F)F)cc3)nc2C)ccc1OCC(=O)O	107
O=C(NOC[C@H](O)CO)c1ccc(F)c(F)c1Nc1ccc(I)cc1Cl	107
CNC(=O)C1[C@H]2O[C@@](C)([C@@H]1N)n1c3ccccc3c3c4c(c5c6ccccc6n2c5c31)C(=O)NC4 (stereo not given in full)	5
Cc1ccc(Sc2cnc(Nc3cccc(Br)n3)s2)cc1C(=O)N1CCN(C(=O)CN)CC1	86
COc1ccc(N(C(=O)Nc2c(C)cccc2C)c2cc(Nc3ccc(N4CCN(C)CC4)cc3)ncn2)c(OC)c1	91
Cn1nc(Nc2ccc(F)cc2)c2c(N)ncnc21	124
NC(=O)c1c(NC(=O)C2CC2)sc2c1CCCC2	115
O=C(O)c1cc(N=Nc2ccc(S(=O)(=O)Nc3ccccn3)cc2)ccc1O	112
Cn1c(=O)c2c(ncn2C)n(C)c1=O	101
COc1cc(O)c2c(c1)/C=C/C[C@H](O)[C@H](O)C(=O)/C=C\C[C@H](C)OC2=O	91
O=C(Nc1nc2cc(C(F)(F)F)cc(NC3CC3)n2n1)c1cccnc1	104
CN1C(=O)[C@@H](Cc2c[nH]c3ccccc23)NC1=S	96
N#Cc1c(C2CCNCC2)cc(-c2c(O)cccc2OCC2CC2)nc1N	81
CC(C)(C#N)c1ccc(N2C(=O)OCc3cnc4ccc(-c5cnc6ccccc6c5)cc4c32)cc1	102
Cc1cccc(Nc2nn(C)c3ncnc(N)c23)c1	100
Cc1ccc(-c2ccc3c(ccc4sc5c(c43)NC[C@@H](C)NC5=O)n2)cn1	97
FC(F)(F)c1ccc(-c2ccc(Oc3cncc4sc(-c5nn[nH]n5)cc34)cc2)cc1	99
NS(=O)(=O)OC[C@@H]1C[C@@H](n2ccc3c(N[C@H]4CCc5ccccc54)ncnc32)C[C@@H]1O	118
c1ccc2c(-c3cnn4cc(-c5ccc(N6CCNCC6)cc5)cnc34)ccnc2c1	103

---

- study.system: MAP3K9 (human) (UniProt P80192)
- Sequence (P80192 whole entry, looked up): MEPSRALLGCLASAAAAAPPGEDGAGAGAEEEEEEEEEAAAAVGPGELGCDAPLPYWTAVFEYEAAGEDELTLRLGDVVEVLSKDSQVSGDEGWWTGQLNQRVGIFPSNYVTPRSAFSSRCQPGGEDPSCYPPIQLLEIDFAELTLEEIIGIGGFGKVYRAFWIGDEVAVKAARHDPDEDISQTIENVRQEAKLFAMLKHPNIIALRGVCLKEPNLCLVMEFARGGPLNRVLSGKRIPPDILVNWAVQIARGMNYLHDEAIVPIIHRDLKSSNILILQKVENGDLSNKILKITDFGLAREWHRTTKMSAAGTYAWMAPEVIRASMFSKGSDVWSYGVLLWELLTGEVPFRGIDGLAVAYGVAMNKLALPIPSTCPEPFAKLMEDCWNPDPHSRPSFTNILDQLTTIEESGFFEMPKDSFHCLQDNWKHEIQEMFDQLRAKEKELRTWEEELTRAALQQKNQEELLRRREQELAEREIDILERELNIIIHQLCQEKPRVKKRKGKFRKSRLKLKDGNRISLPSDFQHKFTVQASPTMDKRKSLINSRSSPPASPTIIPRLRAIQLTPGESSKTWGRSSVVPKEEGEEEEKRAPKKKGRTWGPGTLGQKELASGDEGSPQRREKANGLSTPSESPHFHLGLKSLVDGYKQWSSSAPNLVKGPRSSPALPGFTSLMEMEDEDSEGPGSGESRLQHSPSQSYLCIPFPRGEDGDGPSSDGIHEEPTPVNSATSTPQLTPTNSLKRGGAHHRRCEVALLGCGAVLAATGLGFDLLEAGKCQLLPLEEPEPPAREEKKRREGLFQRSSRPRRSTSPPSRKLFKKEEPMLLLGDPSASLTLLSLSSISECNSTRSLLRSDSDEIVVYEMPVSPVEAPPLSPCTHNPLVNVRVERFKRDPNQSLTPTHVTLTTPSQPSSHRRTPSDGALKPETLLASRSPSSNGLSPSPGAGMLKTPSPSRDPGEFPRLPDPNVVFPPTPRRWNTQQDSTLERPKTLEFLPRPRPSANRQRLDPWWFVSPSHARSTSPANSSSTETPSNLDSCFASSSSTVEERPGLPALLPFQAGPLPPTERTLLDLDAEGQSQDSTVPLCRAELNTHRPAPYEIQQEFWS
- test: radiometric filter-binding kinase assay
- experimental.context: compound 10.0 µM
Classify: MET when residual activity is strictly less than 90%; NOT MET when residual activity is not.

compound	study.system	label
Cc1ccc2c(c1)C(=O)[C@@]1(O)CCN(c3ccccc3)C1=N2	MAP3K9 (human) (UniProt P80192)	NOT MET
Cc1nc(-c2ccc(OCC(C)C)c(C#N)c2)sc1C(=O)O	MAP3K9 (human) (UniProt P80192)	MET
COC(=O)/C=C/C(=O)OC	MAP3K9 (human) (UniProt P80192)	MET
CC(C)C[C@H](NC(=O)CNC(=O)c1cc(Cl)ccc1Cl)B1OC(=O)CC(CC(=O)O)(C(=O)O)O1 (stereo partly specified)	MAP3K9 (human) (UniProt P80192)	MET
CN1C(=O)[C@@H](Cc2c[nH]c3ccccc23)NC1=S	MAP3K9 (human) (UniProt P80192)	NOT MET
CCOC(=O)c1ccc(N2NC(=O)/C(=C/c3ccc([N+](=O)[O-])o3)C2=O)cc1	MAP3K9 (human) (UniProt P80192)	MET
C=CC(=O)N1CCC[C@@H](n2nc(-c3ccc(Oc4ccccc4)cc3)c3c(N)ncnc32)C1	MAP3K9 (human) (UniProt P80192)	MET
N#Cc1c(O)c2c(-c3ccc(-c4ccccc4O)cc3)csc2[nH]c1=O	MAP3K9 (human) (UniProt P80192)	MET
O=C(Nc1ccccc1-c1cn2c(CN3CCNCC3)csc2n1)c1cnc2ccccc2n1	MAP3K9 (human) (UniProt P80192)	MET
O=C(NOCC(O)CO)c1ccc(F)c(F)c1Nc1ccc(I)cc1Cl (stereo unspecified)	MAP3K9 (human) (UniProt P80192)	MET
NC(=O)c1c(NC(=O)C2CC2)sc2c1CCCC2	MAP3K9 (human) (UniProt P80192)	MET
CCCC(CCC)C(=O)O	MAP3K9 (human) (UniProt P80192)	NOT MET
O=c1c(O)c(-c2ccc(O)c(O)c2)oc2cc(O)c(O)c(O)c12	MAP3K9 (human) (UniProt P80192)	MET
COc1cc(C(=O)N2CCOCC2)c(F)cc1Nc1ncc(C(F)(F)F)c(NC2CC2)n1	MAP3K9 (human) (UniProt P80192)	MET
O=C(NOC[C@H](O)CO)c1ccc(F)c(F)c1Nc1ccc(I)cc1Cl	MAP3K9 (human) (UniProt P80192)	NOT MET
CCNc1nc(Nc2cc(F)c(C(=O)N3CCOCC3)cc2OC)ncc1C(F)(F)F	MAP3K9 (human) (UniProt P80192)	MET
Nc1cccc2c1CN(C1CCC(=O)NC1=O)C2=O (stereo unspecified)	MAP3K9 (human) (UniProt P80192)	NOT MET
CC1=C(CO)C(=O)O[C@@H]([C@@H](C)[C@H]2CC[C@H]3[C@@H]4C[C@H]5O[C@]56[C@@H](O)C=CC(=O)[C@]6(C)C4CC[C@]23C)C1 (stereo partly specified)	MAP3K9 (human) (UniProt P80192)	MET
